Values of EC50 reported for Beta-2 adrenergic receptor (Rattus norvegicus, UniProt P10608) appear below.
Measured quantity: EC50 (µM)

{"columns": ["Compound", "Measured target", "Result"],
 "data": [
  ["CC(Cc1ccc(OCc2no[n+]([O-])c2C(N)=O)cc1)NCC(O)c1cc(O)cc(O)c1 (racemic)", "Beta-2 adrenergic receptor (Rattus norvegicus, UniProt P10608)", 16],
  ["CC(Cc1ccc(Oc2no[n+]([O-])c2S(=O)(=O)c2ccccc2)cc1)NCC(O)c1cc(O)cc(O)c1 (stereo in doubt; 15a)", "Beta-2 adrenergic receptor (Rattus norvegicus, UniProt P10608)", 0.86],
  ["CC(Cc1ccc(OCc2no[n+]([O-])c2C(N)=O)cc1)NCC(O)c1cc(O)cc(O)c1 (stereo in doubt; 34a)", "Beta-2 adrenergic receptor (Rattus norvegicus, UniProt P10608)", 14],
  ["CCOc1no[n+]([O-])c1S(=O)(=O)c1ccccc1", "Beta-2 adrenergic receptor (Rattus norvegicus, UniProt P10608)", 1.2],
  ["CC(Cc1ccc(Oc2no[n+]([O-])c2S(=O)(=O)c2ccccc2)cc1)NCC(O)c1cc(O)cc(O)c1 (stereo in doubt; 15b)", "Beta-2 adrenergic receptor (Rattus norvegicus, UniProt P10608)", 1.3]
]}
